Target: CLTC 1-364, Q00610
Sequence (Q00610 1-364): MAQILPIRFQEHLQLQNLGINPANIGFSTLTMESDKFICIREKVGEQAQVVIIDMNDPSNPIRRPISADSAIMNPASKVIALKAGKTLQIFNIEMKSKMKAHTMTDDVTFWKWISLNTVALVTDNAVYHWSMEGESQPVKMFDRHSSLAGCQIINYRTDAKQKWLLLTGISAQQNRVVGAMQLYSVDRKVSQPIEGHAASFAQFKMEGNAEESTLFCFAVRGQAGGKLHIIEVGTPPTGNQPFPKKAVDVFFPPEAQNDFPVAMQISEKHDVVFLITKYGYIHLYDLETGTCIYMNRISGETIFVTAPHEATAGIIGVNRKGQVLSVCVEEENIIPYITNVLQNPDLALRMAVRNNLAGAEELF

binder	selected by phage display
ANTLPVSGNLIDLYGN [MITF, O75030]	confidence 3 (active)
LPLIDFADTPEAHVAV [GTSE1, Q9NYZ3]	confidence 3 (active)
SADLIQFEERPQEPSE [MARF1, Q9Y4F3]	confidence 3 (active)

All figures here come from paper PMC8769072.
